Data origin, for the record: patent US20230365563A1

# reported pIC50; entries follow
Target: KRAS-G12D and SOS1 (Homo sapiens, UniProt P01116, G12D)
Sequence (P01116 1-188 isoform P01116-2 G12D): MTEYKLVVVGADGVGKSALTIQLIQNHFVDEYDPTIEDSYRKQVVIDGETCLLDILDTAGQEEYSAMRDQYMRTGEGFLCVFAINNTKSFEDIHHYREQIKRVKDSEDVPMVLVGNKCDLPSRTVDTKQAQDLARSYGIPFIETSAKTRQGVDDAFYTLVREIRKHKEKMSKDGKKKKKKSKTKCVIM
Experiment: Inhibition of KRAS-G12D/SOS1 binding (Cisbio binding kit, 665/615 ratio), Effect Embodiment A
Settings: read-out: GTP-KRAS-G12D:SOS1 IC50
pIC50: −log10 of the molar value. Where a name gives a salt, the structure may show the parent alone.
property: pIC50

molecule	recordedMeasurement
Oc1cc(-c2c(Cl)cc3c(N4CC5CCC(C4)N5)nc(OCCN4CCCCC4)nc3c2F)c2ccccc2c1 (single isomer, unassigned) [Compound 114, dihydrochloride]	7.43
CN(CCCCN1CCNCC1)CCCOc1nc(N2C[C@H]3CC[C@@H](C2)N3)c2cc(Cl)c(-c3cc(O)cc4ccccc34)c(F)c2n1 (single isomer, unassigned)	7.71
CN(C)CCCCCOc1nc(N2CC3CCC(C2)N3)c2cc(Cl)c(-c3cc(O)cc4ccccc34)c(F)c2n1 (single isomer, unassigned)	7.02

====

Target: KRAS_WT and SOS1 (Homo sapiens)
Sequence (P01116 1-188 isoform P01116-2): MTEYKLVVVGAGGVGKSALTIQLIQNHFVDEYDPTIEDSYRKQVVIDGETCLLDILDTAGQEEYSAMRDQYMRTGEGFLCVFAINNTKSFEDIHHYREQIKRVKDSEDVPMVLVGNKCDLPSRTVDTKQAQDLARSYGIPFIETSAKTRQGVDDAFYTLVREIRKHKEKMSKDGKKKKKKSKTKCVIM
Where a name gives a salt, the structure may show the parent alone.

molecule	IC50
Oc1cc(-c2c(Cl)cc3c(N4CC5CCC(C4)N5)nc(OCC4(CN5CCCC5)CC4)nc3c2F)c2ccccc2c1 (single isomer, unassigned)	291 nM
CCc1c(F)ccc2cc(O)cc(-c3c(Cl)cc4c(N5CC6CCC(C5)N6)nc(OC[C@H](C)CN5C6CCC5COC6)nc4c3F)c12 (single isomer, unassigned) [Compound 233b]	227 nM
CCc1c(F)ccc2cccc(-c3c(F)cc4c(N5CC6CCC(C5)N6)nc(OC[C@@]56CCCN5C[C@H](F)C6)nc4c3F)c12 (single isomer, unassigned) [Compound 280a, dihydrochloride]	234 nM
Oc1cc(-c2c(Cl)cc3c(N4CC5CCC(C4)N5)nc(OCCCN4CCC5(CCOC5)CC4)nc3c2F)c2ccccc2c1 (single isomer, unassigned)	1080 nM
CCc1c(F)ccc2cc(O)cc(-c3c(F)cc4c(N5CC6CCC(C5)N6)nc(OCCCN5C6CCC5COC6)nc4c3F)c12 (single isomer, unassigned) [Compound 215a]	52.4 nM
CN(C)CCOc1nc(N2CC3CCC(C2)N3)c2cc(Cl)c(-c3cc(O)cc4ccccc34)c(F)c2n1 (single isomer, unassigned) [Compound 48a]	6020 nM
C[C@H]1C[C@@H](COc2nc(N3CC4CCC(C3)N4)c3cc(Cl)c(-c4cc(O)cc5ccccc45)c(F)c3n2)N(C)C1 (single isomer, unassigned)	292 nM
CN1CCCC1CCOc1nc(N2CC3CCC(C2)N3)c2cc(Cl)c(-c3cc(O)cc4ccccc34)c(F)c2n1 (single isomer, unassigned) [Compound 96b]	2970 nM
Oc1cc(-c2c(Cl)cc3c(N4CC5CCC(C4)N5)nc(OCC(F)CN4CCCC4)nc3c2F)c2ccccc2c1 (single isomer, unassigned) [Compound 109a, hydrochloride]	2570 nM
C[C@@H](COc1nc(N2CC3CCC(C2)N3)c2cc(Cl)c(-c3cc(O)cc4ccccc34)c(F)c2n1)CN1C[C@@H](C)OC[C@H]1C (single isomer, unassigned)	309 nM
CN1CCCC1CCOc1nc(N2CC3CCC(C2)N3)c2cc(Cl)c(-c3cc(O)cc4ccccc34)c(F)c2n1 (single isomer, unassigned) [Compound 96a]	1540 nM
C[C@@H]1C[C@@H](COc2nc(N3CC4CCC(C3)N4)c3cnc(-c4cc(O)cc5ccccc45)c(F)c3n2)N(C)C1	394 nM
CO[C@@H](COc1nc(N2CC3CCC(C2)N3)c2cc(Cl)c(-c3cc(O)cc4ccccc34)c(F)c2n1)CN1CCCC[C@H]1C (single isomer, unassigned)	> 10000 nM
Oc1cc(-c2c(Cl)cc3c(N4CC5CCC(C4)N5)nc(OCCCN4CC5CCC(C4)O5)nc3c2F)c2ccccc2c1 (single isomer, unassigned)	1020 nM
CN1CCC[C@H]1COc1nc(N2CC3CCC(C2)N3)c2cc(Cl)c(-c3cc(O)c(F)c4ccccc34)c(F)c2n1 (single isomer, unassigned) [Compound 89a, hydrochloride]	2190 nM
CC(C)NCCCOc1nc(N2CC3CCC(C2)N3)c2cc(Cl)c(-c3cc(O)cc4ccccc34)c(F)c2n1 (single isomer, unassigned) [Compound 101, dihydrochloride]	2470 nM
Oc1cc(-c2c(Cl)cc3c(N4CC5CCC(C4)N5)nc(OCC(CN4C5CCC4COC5)C4CC4)nc3c2F)c2ccccc2c1 (single isomer, unassigned) [Compound 209a]	5650 nM
Oc1cc(-c2c(Cl)cc3c(N4C[C@H]5CC[C@@H](C4)N5)nc(OCCCN4C[C@H]5C[C@@H]4CO5)nc3c2F)c2ccccc2c1 (single isomer, unassigned) [Compound 169, dihydrochloride]	1870 nM
C#Cc1c(F)ccc2cc(O)cc(-c3c(Cl)cc4c(N5CC6CCC(C5)N6)nc(OCCCN5C6CCC5COC6)nc4c3F)c12 (single isomer, unassigned) [Compound 255b]	75.6 nM
CCc1cccc2cc(O)cc(-c3c(F)cc4c(N5CC6CCC(C5)N6)nc(OCCCN5CCOC[C@H]5C)nc4c3F)c12 (single isomer, unassigned) [Compound 282a, dihydrochloride]	175 nM
CN(C)C1CN(c2nc(N3C4CC5CC3CC(C4)N5)c3cc(Cl)c(-c4cc(O)cc5ccccc45)c(F)c3n2)C1 (single isomer, unassigned)	279 nM
